Tested on: Streptococcus pyogenes
Test: Antibacterial activity against MLSB-resistant Streptococcus pyogenes 12-206 harboring ermA gene assessed as reduction in microbial growth
Format: functional
Property: MIC; scope: individual molecules
Please respond with the number in µg/mL and leave the unit unwritten.

MOLECULE	OUTPUT_UNIT	MIC
CC[C@H]1OC(=O)[C@H](C)[C@@H](OC(=O)Cc2ccccn2)[C@H](C)[C@@H](O[C@@H]2O[C@H](C)C[C@H](N(C)C)[C@H]2O)[C@](C)(OC(=O)CCNCCC#Cc2ccc3c(c2)c(=O)c(C(=O)O)cn3C2CC2)C[C@@H](C)CN(C)[C@H](C)[C@H]2OC(=O)O[C@@]21C	µg/mL	32
CC[C@H]1OC(=O)[C@H](C)[C@@H](OC(=O)Cc2ccccn2)[C@H](C)[C@@H](O[C@@H]2O[C@H](C)C[C@H](N(C)C)[C@H]2O)[C@](C)(OC(=O)CCNCCC#Cc2ccc3c(c2)c(=O)c(C(N)=O)cn3C)C[C@@H](C)CN(C)[C@H](C)[C@@H](O)[C@]1(C)O	µg/mL	8
CC[C@H]1OC(=O)[C@H](C)[C@@H](OC(=O)Cc2ccccn2)[C@H](C)[C@@H](O[C@@H]2O[C@H](C)C[C@H](N(C)C)[C@H]2O)[C@](C)(OC(=O)CCNCCC#Cc2ccc3c(c2)c(=O)c(C(N)=O)cn3CC)C[C@@H](C)CN(C)[C@H](C)[C@@H](O)[C@]1(C)O	µg/mL	8
CC[C@H]1OC(=O)[C@H](C)[C@@H](OC(=O)Cc2ccccn2)[C@H](C)[C@@H](O[C@@H]2O[C@H](C)C[C@H](N(C)C)[C@H]2O)[C@](C)(OC(=O)CCN2CCN(c3cc4c(cc3F)c(=O)c(C(=O)O)cn4C3CC3)CC2)C[C@@H](C)CN(C)[C@H](C)[C@H]2OC(=O)O[C@@]21C	µg/mL	64
CC[C@H]1OC(=O)[C@H](C)[C@@H](OC(=O)Cc2ccccn2)[C@H](C)[C@@H](O[C@@H]2O[C@H](C)C[C@H](N(C)C)[C@H]2O)[C@](C)(OC(=O)CCNCCC#Cc2ccc3c(c2)c(=O)c(C(N)=O)cn3C2CC2)C[C@@H](C)CN(C)[C@H](C)[C@H]2OC(=O)O[C@@]21C	µg/mL	16
CC[C@H]1OC(=O)[C@H](C)[C@@H](OC(=O)Cc2ccccn2)[C@H](C)[C@@H](O[C@@H]2O[C@H](C)C[C@H](N(C)C)[C@H]2O)[C@](C)(OC(=O)CCN2CCN(c3nc4c(cc3F)c(=O)c(C(N)=O)cn4CC)CC2)C[C@@H](C)CN(C)[C@H](C)[C@@H](O)[C@]1(C)O	µg/mL	16
CC[C@H]1OC(=O)[C@H](C)[C@@H](OC(=O)Cc2cccnc2)[C@H](C)[C@@H](O[C@@H]2O[C@H](C)C[C@H](N(C)C)[C@H]2O)[C@](C)(OC(=O)CCNCCC#Cc2ccc3c(c2)c(=O)c(C(=O)O)cn3C2CC2)C[C@@H](C)CN(C)[C@H](C)[C@H]2OC(=O)O[C@@]21C	µg/mL	64
CC[C@H]1OC(=O)[C@H](C)[C@@H](OC(=O)Cc2ccccn2)[C@H](C)[C@@H](O[C@@H]2O[C@H](C)C[C@H](N(C)C)[C@H]2O)[C@](C)(OC(=O)CCN2CCN(c3c(F)cc4c(=O)c(C(N)=O)cn(C5CC5)c4c3OC)CC2C)C[C@@H](C)CN(C)[C@H](C)[C@@H](O)[C@]1(C)O (some centres not stated)	µg/mL	8
CC[C@H]1OC(=O)[C@H](C)[C@@H](OC(=O)Cc2cccnc2)[C@H](C)[C@@H](O[C@@H]2O[C@H](C)C[C@H](N(C)C)[C@H]2O)[C@](C)(OC(=O)CCNCCC#Cc2ccc3c(c2)c(=O)c(C(N)=O)cn3C2CC2)C[C@@H](C)CN(C)[C@H](C)[C@H]2OC(=O)O[C@@]21C	µg/mL	32
O=C(O)c1cn(C2CC2)c2cc(N3CCNCC3)c(F)cc2c1=O	µg/mL	0.5

Now look at this one.
*Q* Bench note: what MIC did CC[C@H]1OC(=O)[C@H](C)C(=O)[C@H](C)[C@@H](O[C@@H]2O[C@H](C)C[C@H](N(C)C)[C@H]2O)[C@](C)(OC)C[C@@H](C)C(=O)[C@H](C)[C@H]2N(CCCCn3cnc(-c4cccnc4)c3)C(=O)O[C@]12C show?
*A* 0.25
